Tested on: CCRF-CEM leukemia
Test protocol: NCI tumour cell line growth inhibition, 48 h
In this section we review reported TGI values for a set of compounds.

Here are 5 compounds together with their reported answers.
Input: Item Cc1cc2c(cc1C)N(C(=O)CCl)CCN2C(=O)CCl has what recorded TGI?
Output: 0.856 µM

Input: Input CC[C@]1(O)C(=O)OCc2c1cc1n(c2=O)Cc2cc3c(N)cccc3nc2-1
Output: > 100 µM

Input: Input CCCCC1=C(C(=O)N2CCOCC2)C2(OCCO2)C1=O
Output: > 100 µM

Input: Input CC[O-].CC[O-].O=S(=O)([O-])c1ccc([O-])c2ncccc12.O=S(=O)([O-])c1ccc([O-])c2ncccc12.[Ti+4]
Output: > 100 µM

Input: Input CNCCn1c(=O)c2cc(OC)c(OC)cc2c2ccc3cc4c(cc3c21)OCO4
Output: 0.952 µM

Others:
Input: Item COc1ccc2[nH]c(O)c(C(=Nc3ccc(N(C)C(=O)CN4CCN(C)CC4)cc3)c3ccccc3)c2c1 has what recorded TGI?
Output: 10.4 µM

Input: Input CCOC(=O)/C=C1\CCCC12OCCO2
Output: > 100 µM

Input: Input COc1ccc(OC2OC(CO)C(OCc3ccccc3)C(OCc3ccccc3)C2OCc2ccccc2)cc1 (stereo unspecified)
Output: > 100 µM

Input: Input CCn1c2ccc(O)cc2c2c(C)c3c[n+](C)ccc3c(C)c21
Output: > 100 µM

Input: Input CN(C)/N=C(/c1nc2ccc(Cl)cc2[nH]c1=O)C(O)c1ccc(C(O)/C(=N\N(C)C)c2nc3ccc(Cl)cc3[nH]c2=O)cc1 (stereo unspecified)
Output: > 100 µM

Input: Input N#C/C(C(=O)Nc1ccc(Cl)cc1)=C(/N)N1CCCC1
Output: > 100 µM

* * *

System: SR leukemia
Test protocol: NCI tumour cell line growth inhibition, 48 h
In this section we review reported TGI values for a set of compounds.
Record the value in µM, omitting the unit from your answer.

Input: Form field - read-out: TGI; system: SR leukemia; submitted item: CNCCn1c(=O)c2cc(OC)c(OC)cc2c2ccc3cc4c(cc3c21)OCO4
Output: 0.972

Input: Input Cc1cc(C)c(C(=O)c2no[n+]([O-])c2C(=O)c2c(C)cc(C)c(Br)c2C)c(C)c1Br
Output: 8.42

Input: Input O=C(O)c1ccc2c(c1)CCCC(c1ccc(Cl)cc1Cl)=C2c1ccc(O[C@H]2CCN(CCCF)C2)cc1
Output: 20.7

Others:
Input: Form field - read-out: TGI; system: SR leukemia; submitted item: COc1ccc(C2=NN(C=O)C(c3cccc(Nc4ccnc5cc(Cl)ccc45)c3)C2)cc1 (stereo not given)
Output: 5.23

* * *

Tested on: DU-145 prostate
Test protocol: NCI tumour cell line growth inhibition, 48 h; in the data active = GI50 below about 0.43 µM; inactive = the rest
Mark one answer only. Choices: Y = active, N = inactive

Before answering, review these 4 worked examples.
Input: # lookup: test call for CNCCn1c(=O)c2cc(OC)c(OC)cc2c2ccc3cc4c(cc3c21)OCO4
Output: Y

Input: Input O=C(O)C1CCCCC1C(=O)O.[NH-]C1CCC1.[NH2-].[Pt+2] (stereo not given)
Output: N

Input: Input COc1ccc(Cn2cc3c(c2)-c2oncc2CC3)cc1
Output: N

Input: Input CCOC(=O)/C=C/C1=C(c2cccs2)c2ccccc2CC1
Output: N

Let's switch to this compound now.
Input: # lookup: test call for Cc1cc(Cl)ccc1Nc1nc(C(F)(F)F)ccc1C(=O)N/N=C/c1ccc([N+](=O)[O-])cc1
Output: N
